Reported GI50 values are given for each entry in this list.
# Tested on: OVCAR-8
# ASSAY_COMMENT: NCI tumour cell line growth inhibition, 48 h
Calls of active or inactive are those of the source. Rule as the data show it: active = GI50 up to about 1.1 µM and inactive = higher.
METRIC: GI50

In [3]: df
Out[3]:
                                    compound  metric              reading
 0  Cc1cc(O)nc(NN2C(Cl)C(=O)C2c2cccc(O)c2)n1 (centres undefined)    GI50   7.21 µM (inactive)
 1  COc1c(C)c(C/C=C(\C)CCCCO[Si](c2ccccc2)(c2ccccc2)C(C)(C)C)c(OC)c(OC)c1OC    GI50   20.2 µM (inactive)
 2  CC(=O)OCC1OC(Nc2nc(O)n(C)c(=O)c2-c2csc(N)n2)C(OC(C)=O)C(OC(C)=O)C1OC(C)=O (centres undefined)    GI50  > 100 µM (inactive)
 3  O=C(O)c1c(-c2cccc3ccccc23)sc(-c2cccc3ccccc23)c1C(=O)O    GI50  > 100 µM (inactive)
 4  Cc1cc(S(=O)(=O)Nc2nc3ccsc3c(=O)n2N)c(S)cc1Cl    GI50  > 100 µM (inactive)
 5                  O=C1CSSCC(=O)Nc2ccccc2N1    GI50  > 100 µM (inactive)
 6  O=S1(=O)N=C(SCc2ccccc2)N(c2ccccc2)c2ccncc21    GI50   47.3 µM (inactive)
 7          O=C1NC(N2CCOCC2)=N/C1=C\c1ccccc1    GI50  > 100 µM (inactive)
 8  CC(=O)OC1COC(Nc2nc(N)n(C)c(=O)c2N=O)C(OC(C)=O)C1OC(C)=O (centres undefined)    GI50   > 10 µM (inactive)
 9  COc1cc2cc(C(=O)Nc3cc4n(n3)-c3ccccc3C4)[nH]c2c(OC)c1OC    GI50   1.26 µM (inactive)
10  CCOC1=C2C(=O)OC(=O)C2C2CCCCC2=C1 (centres undefined)    GI50  > 100 µM (inactive)
11  CC(=O)OCC1OC(n2c(C)c(C)c(C)c(C#N)c2=S)C(OC(C)=O)C(OC(C)=O)C1OC(C)=O (centres undefined)    GI50  > 100 µM (inactive)
12       CCc1nnc(-n2c(C)nc3cc(Cl)ccc3c2=O)s1    GI50   51.4 µM (inactive)
13  COC(=O)C1=C(C)N(NC(=O)OC(C)(C)C)C(=O)C1=P(c1ccccc1)(c1ccccc1)c1ccccc1    GI50  > 100 µM (inactive)

###

# Test system: CCRF-CEM
# ASSAY_COMMENT: NCI tumour cell line growth inhibition, 48 h
Active and inactive are the calls of the source. No stated cut-off is given here; in the data, active = GI50 up to about 1.1 µM and inactive = higher.
Possible outcomes: T = active, F = inactive

In [3]: df
Out[3]:
                                    compound  target_or_test_system  assigned_label
 0  COc1ccc(C2=CC(c3ccccc3)n3nnnc3N2)cc1 (stereo not drawn)               CCRF-CEM               F
 1     O=c1[nH]c2ccccc2c(=O)n1/N=C\c1ccccc1O               CCRF-CEM               F
 2    CCOC(=O)Cn1c2ccc(Br)cc2c2nc3ccccc3nc21               CCRF-CEM               F
 3       O=C1c2ccccc2-c2c1c1ccccc1c(=O)n2CCO               CCRF-CEM               F
 4  O=C1Nc2ccc([N+](=O)[O-])cc2/C1=N/NC(=S)Nc1ccc([N+](=O)[O-])cc1               CCRF-CEM               F
 5  Cc1c(C(=O)NNc2ccccc2)n2c(S)nnc2c2ccccc12               CCRF-CEM               F
 6            Oc1c(Br)c(-c2ccccc2)nc2ccccc12               CCRF-CEM               F
 7  Cc1cccc(C)c1NC(=O)CCCC(=O)C(C#N)c1ccccc1 (stereo not drawn)               CCRF-CEM               F
 8  Cc1ccc(-c2nc3c(C(=O)NCCN(C)C)cccc3[nH]2)cc1               CCRF-CEM               F
 9  COC(=O)/C=C\[C@H]1[C@H](C)N1S(=O)(=O)c1ccc(C)cc1 (stereo partly drawn)               CCRF-CEM               F
10  O=C1NC2c3c(I)sc(I)c3/C(=N\O)C2O1 (stereo not drawn)               CCRF-CEM               F
11  CC(C)c1ccc(O)c(=O)cc1 [GAMMA-THUJAPLICIN]               CCRF-CEM               F
12  O=[N+]([O-])c1cc2c(c([N+](=O)[O-])c1)NCc1ccccc1O2               CCRF-CEM               F
13   CCCCCCCCCc1cccc(N2C(N)=NC(N)=NC2(C)C)c1               CCRF-CEM               T
14            Nn1c(-c2ccccc2Cl)nc2ccccc2c1=O               CCRF-CEM               F
15            c1ccc(CNCCCCNCCCNCc2ccccc2)cc1               CCRF-CEM               F
16  CC(=O)OCC1OC(Nc2nc(O)n(C)c(=O)c2-c2csc(N)n2)C(OC(C)=O)C(OC(C)=O)C1OC(C)=O (stereo not drawn)               CCRF-CEM               F
17  CCN(CC)CCOC(c1ccccc1)c1ccccc1.CCOC(=O)Nc1ccc(S(=O)(=O)OC)cc1.CCOC(=O)Nc1ccc(S(=O)(=O)OC)cc1.Nc1ccc(C(=O)O)c(O)c1               CCRF-CEM               F
18  S=C(Nc1ccccc1)Nc1ccccc1SC(/C=C/NNC1=NN=C(c2ccccc2)C(c2ccccc2)N1)c1ccccc1 (stereo not drawn)               CCRF-CEM               F
19  CNCCCn1c2ccccc2c2c3c(c(-c4ccsc4)cc21)C(=O)NC3=O               CCRF-CEM               T
20  [O-][S+](Cc1cc2c(cc1Br)OCO2)c1ccccc1 (stereo not drawn)               CCRF-CEM               F
21    O=C(CCc1cc(O)cc(O)c1)NCCc1cc(O)cc(O)c1               CCRF-CEM               F
22  O=C(Cc1ccccc1)Nn1c(-c2ccccc2)nc2ccccc2c1=O               CCRF-CEM               F
23  CCOC(=O)C12CC1(C(=O)OCC)C1CCC2C1 (stereo not drawn)               CCRF-CEM               F
24  CCOC(=O)c1c(-c2ccc(O)c(OC)c2)c(C#N)c(=S)n(C2OC(CO)C(O)C(O)C2O)c1-c1ccccc1 (stereo not drawn)               CCRF-CEM               F
25                Oc1c(Cl)c(Cl)c(O)c2c1CCCC2               CCRF-CEM               F
26                Cc1oc2nc(N(C)C)nc(NN)c2c1C               CCRF-CEM               F
27  O=S1(=O)N=C(SCc2ccccc2)N(c2ccccc2)c2ccncc21               CCRF-CEM               F
